In this section, each of the compounds is paired with its reported Emax at 1 µM.
# target-desc: D2 receptor (Homo sapiens, UniProt P14416)
# Sequence (P14416 whole entry): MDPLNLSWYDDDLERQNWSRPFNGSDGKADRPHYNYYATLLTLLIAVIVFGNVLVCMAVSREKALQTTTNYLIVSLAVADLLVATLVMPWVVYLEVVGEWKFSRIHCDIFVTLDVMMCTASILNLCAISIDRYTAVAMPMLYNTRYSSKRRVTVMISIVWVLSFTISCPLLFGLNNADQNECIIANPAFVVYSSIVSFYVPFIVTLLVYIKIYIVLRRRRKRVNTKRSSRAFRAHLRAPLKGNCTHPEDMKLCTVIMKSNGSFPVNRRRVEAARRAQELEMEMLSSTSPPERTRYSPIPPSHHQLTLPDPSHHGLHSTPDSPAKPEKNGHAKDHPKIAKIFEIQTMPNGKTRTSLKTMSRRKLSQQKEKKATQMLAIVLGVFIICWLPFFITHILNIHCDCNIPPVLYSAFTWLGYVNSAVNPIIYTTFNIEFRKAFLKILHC
# measurement-protocol: [3H]Thymidine uptake assay for D2 intrinsic activity
# Assay type: cell-based
# cond: Table 2; test compound 1 μM; 1 μM Quinpirole = 100% intrinsic activity
Kindly write the number and append the unit.

Example cases with answers are listed next.
O=c1ccc2ccc(OCCCCN3CCN(c4cccc5c4CCCO5)CC3)nc2[nH]1: 22%
O=C1CCc2ccc(OCCCCN3CCN(c4cccc5ncccc45)CC3)nc2N1: 20%
O=c1ccc2ccc(OCCCCN3CCN(c4cccc5ncccc45)CC3)nc2[nH]1: 12%

Now examine the next entry.
Kindly note the recorded Emax at 1 µM for O=c1ccc2cnc(OCCCCN3CCN(c4cccc5c4OCCO5)CC3)nc2[nH]1 , which is 20%

###

In this section, each of the molecules is paired with its reported Emax at 1 µM.
# target-desc: D2 receptor (Homo sapiens, UniProt P14416)
# measurement-protocol: [3H]Thymidine uptake assay for D2 intrinsic activity
# Format: cell-based
# cond: Table 1; test compound 1 μM; 1 μM Quinpirole = 100% intrinsic activity
The reply should be a number in %, with the unit left off.

Example cases with answers are listed next.
Cc1c(F)ccc(N2CCN(CCCCCc3ccc4c(n3)NC(=O)CC4)CC2)c1Cl: 8
Cc1cc2c(nc1OCCCCN1CCN(c3cccc(Cl)c3Cl)CC1)NC(=O)CC2 [Example E1]: 32
O=C1CCc2ccc(OCCCCN3CCN(c4cccc5cccc(Cl)c45)CC3)nc2N1: 36
CC1(C)Cc2ccc(OCCCCN3CCN(c4cccc(Cl)c4Cl)CC3)nc2NC1=O: 19
COc1cccc(N2CCN(CCCCOc3ccc4c(n3)NC(=O)CC4)CC2)c1Cl: 36
CC(F)(F)c1ccccc1N1CCN(CCCCOc2ccc3ccc(=O)[nH]c3n2)CC1: 43

Kindly note the recorded Emax at 1 µM for CC1(C)C(=O)Nc2nc(OCCCCN3CCN(c4cccc(Cl)c4Cl)CC3)ccc2C1=O , which is 3

Kindly note the recorded Emax at 1 µM for CC(=O)c1c(F)cccc1N1CCN(CCCCOc2ccc3c(n2)NC(=O)CC3)CC1 , which is 11

Kindly note the recorded Emax at 1 µM for O=c1ccc2cnc(OCCCCN3CCN(c4cccc5ccccc45)CC3)nc2[nH]1 , which is 38

Kindly note the recorded Emax at 1 µM for Cc1nc(OCCCCN2CCN(c3cccc4ccc(F)cc34)CC2)nc2[nH]c(=O)ccc12 , which is 44

Kindly note the recorded Emax at 1 µM for O=c1ccc2ccc(OCCCCN3CCN(c4cccc(Cl)c4F)CC3)nc2[nH]1 , which is 36

###

In this section, each of the molecules is paired with its reported Emax at 1 µM.
# target-desc: D2 receptor (Homo sapiens)
# measurement-protocol: [3H]Thymidine uptake assay for D2 intrinsic activity
# Format: cell-based
# cond: Table 1; test compound 1 μM; 1 μM Quinpirole = 100% intrinsic activity
The reply should be a number in %, with the unit left off.

O=C1CCc2ccc(OCCCCN3CCN(c4cccc5cc(Cl)ccc45)CC3)nc2N1: 16
COc1cccc(N2CCN(CCCCOc3ccc4c(n3)NC(=O)CC4)CC2)c1OC: 10
CCOc1ccccc1N1CCN(CCCCOc2ccc3c(n2)NC(=O)CC3)CC1: 19
CC(=O)c1ccc2ccccc2c1N1CCN(CCCCOc2ccc3ccc(=O)[nH]c3n2)CC1: 33
CC(=O)c1c(F)cccc1N1CCN(CCCCOc2ccc3ccc(=O)[nH]c3n2)CC1: 2

Kindly note the recorded Emax at 1 µM for CC(=O)c1c(Cl)cccc1N1CCN(CCCCOc2ccc3c(n2)NC(=O)CC3)CC1 , which is 2

Kindly note the recorded Emax at 1 µM for CC1(C)CCc2cccc(N3CCN(CCCCOc4ccc5ccc(=O)[nH]c5n4)CC3)c2C1=O , which is 39

Kindly note the recorded Emax at 1 µM for O=c1ccc2ccc(OCCCCN3CCN(c4cccc5c4CC(F)(F)C5)CC3)nc2[nH]1 , which is 29

###

In this section, each of the compounds is paired with its reported melting point.

Example cases with answers are listed next.
O=C1NCc2ccc(OCCCCN3CCN(c4cccc(Cl)c4Cl)CC3)nc2N1: 166 to 167 °C
CCOc1cccc(N2CCN(CCCCOc3ccc4c(n3)NC(=O)CC4)CC2)c1Cl: 110 to 112 °C
CC(=O)c1cccc(N2CCN(CCCCOc3ccc4c(n3)NC(=O)CC4)CC2)c1Cl: 138 to 139 °C
O=C1CCc2ccc(OCCCCN3CCN(c4cccc5c4CCCC5=O)CC3)nc2N1: 169 to 170 °C
Cc1c(C)c2ccc(CCCCCN3CCN(c4cccc(Cl)c4Cl)CC3)nc2[nH]c1=O: 202 to 203 °C

Kindly note the recorded melting point for O=c1ccc2ccc(CCCCCN3CCN(c4cccc(Cl)c4Cl)CC3)nc2[nH]1 , which is 176 to 178 °C

Kindly note the recorded melting point for Cc1cc(=O)[nH]c2nc(OCCCCN3CCN(c4cccc(Cl)c4Cl)CC3)ccc12 [Example D1] , which is 181 to 182 °C

Kindly note the recorded melting point for CC(=O)c1cccc(N2CCN(CCCCOc3ccc4ccc(=O)[nH]c4n3)CC2)c1Cl , which is 108 to 110 °C

###

# target-desc: D2 receptor (Homo sapiens, UniProt P14416)
# measurement-protocol: [3H]Thymidine uptake assay for D2 intrinsic activity
# Format: cell-based
# cond: Table 1; test compound 1 μM; 1 μM Quinpirole = 100% intrinsic activity
just bin them by Emax at 1 µM: lower segment = under 20%, middle segment = from 20% up to 30%, upper segment = 30% and over

CC(F)(F)c1ccccc1N1CCN(CCCCOc2ccc3c(n2)NC(=O)CC3)CC1 [Example A42]: middle segment

Please indicate the class for CC1(C)Cc2ccc(CCCCCN3CCN(c4cccc(Cl)c4Cl)CC3)nc2NC1=O [Example D12] based on its Emax at 1 µM.
lower segment

Please indicate the class for O=C1CCc2ccc(CCCCCN3CCN(c4cccc5c4CCCC5)CC3)nc2N1 [Example C12] based on its Emax at 1 µM.
lower segment

Please indicate the class for O=C1CCc2ccc(OCCCCN3CCN(c4ccccc4-c4ccccc4)CC3)nc2N1 [Example A11] based on its Emax at 1 µM.
lower segment

###

# target-desc: D2 receptor (Homo sapiens)
# measurement-protocol: [3H]Thymidine uptake assay for D2 intrinsic activity
# Format: cell-based
# cond: Table 1; test compound 1 μM; 1 μM Quinpirole = 100% intrinsic activity
reported-metric: Emax at 1 µM (%)
The reply should be a number in %, with the unit left off.

CC(CCCN1CCN(c2cccc(Cl)c2Cl)CC1)Oc1ccc2c(n1)NC(=O)CC2 (stereo not shown) [Example C5]: 40
Cc1cccc(N2CCN(CCCCCc3ccc4c(n3)NC(=O)CC4)CC2)c1Cl [Example C10]: 5
O=C1CCCc2cccc(N3CCN(CCCCOc4ccc5ccc(=O)[nH]c5n4)CC3)c21 [Example B35]: 20

Kindly note the recorded Emax at 1 µM for Cc1nc(OCCCCN2CCN(c3cccc4ccccc34)CC2)nc2[nH]c(=O)ccc12 [Example H12] , which is 34

###

# target-desc: D2 receptor (Homo sapiens)
# measurement-protocol: [3H]Thymidine uptake assay for D2 intrinsic activity
# Type: cell-based
# cond: Table 1; test compound 1 μM; 1 μM Quinpirole = 100% intrinsic activity
Values of Emax at 1 µM strictly less than 30% map to label 1, and values of at least 30% map to label 0.

// known answers, use as guide
CC(=O)c1cccc(N2CCN(CCCCOc3ccc4c(n3)NC(=O)CC4)CC2)c1: label 0
O=C1CCc2cc(F)c(OCCCCN3CCN(c4cccc(Cl)c4Cl)CC3)nc2N1: label 0
Cc1cc(OCCCCN2CCN(c3cccc4c3CCCC4)CC2)nc2c1CCC(=O)N2: label 1
CC(C)Oc1ccc(Cl)cc1N1CCN(CCCCOc2ccc3c(n2)NC(=O)CC3)CC1: label 1

Below 30% on Emax at 1 µM? Entry O=C1CCc2ccc(OCCCCN3CCN(c4ccc(F)cc4Cl)CC3)nc2N1
label 1

Below 30% on Emax at 1 µM? Entry O=C1CCc2ccc(OCCCCN3CCN(c4ccc(F)cc4)CC3)nc2N1
label 0

Below 30% on Emax at 1 µM? Entry CC(C)Oc1ccccc1N1CCN(CCCCOc2ccc3ccc(=O)[nH]c3n2)CC1
label 0

Below 30% on Emax at 1 µM? Entry O=C1NCc2ccc(OCCCCN3CCN(c4cccc5c4CCC5)CC3)nc2N1
label 1

Below 30% on Emax at 1 µM? Entry O=c1ccc2ccc(OCCCCN3CCN(c4c(F)ccc5ccccc45)CC3)nc2[nH]1
label 1

Below 30% on Emax at 1 µM? Entry Cc1cccc(N2CCN(CCCCOc3ccc4c(n3)NC(=O)CC4(C)C)CC2)c1Cl
label 0

Below 30% on Emax at 1 µM? Entry Cc1cc(=O)[nH]c2nc(CCCCCN3CCN(c4cccc(Cl)c4Cl)CC3)ccc12
label 1

Below 30% on Emax at 1 µM? Entry N#Cc1ccc2cccc(N3CCN(CCCCOc4ccc5c(n4)NC(=O)NC5)CC3)c2c1
label 0

Below 30% on Emax at 1 µM? Entry CCc1cccc(N2CCN(CCCCOc3ccc4c(n3)NC(=O)CC4)CC2)c1
label 1

Reference source for all entries: patent US7160888B2
